Values were extracted from PubChem BioAssay AID686978.

assay-protocol: qHTS for Inhibitors of human tyrosyl-DNA phosphodiesterase 1 (TDP1): qHTS in cells in absence of CPT; further: on the % scale 0 is the no-effect control and ±100 the full control effect; nearly all actives have a fitted effect of over 55% in size
test-settings: DT40 Tdp1-/- hTDP1 cells, no CPT, ATP luminescence, 48 h; at 46.2 µM (top of the series) unless noted
Procedure: Human tyrosyl-DNA phosphodiesterase 1 (TDP1) is a novel repair gene, and we propose to use it as a new target for anticancer drug development. […] For the primary screen, Tdp1-/-;hTDP1 cells will be exposed to small molecules in the presence or absence of CPT, and their growth kinetics will be evaluated after 48 hours by measuring ATP activity. […] The hit compounds will then be evaluated in the presence or absence of CPT using Tdp1-/- cells. […]
Among all 420,000 compounds or so, about 64,000 (15%) were called active. About 27% were inconclusive and are not listed. These entries were drawn from the full list.
measure: activity change, negative = growth inhibition

| molecule | endpoint-value |
| --- | --- |
| CC(C)C1=CC2=CC[C@H]3[C@](C)(C(=O)O)CCC[C@]3(C)C2CC1 (some centres undefined) | 3.41% [at 9.04 µM] (inactive) |
| Cc1csc(-c2coc3cc(O[C@@H]4O[C@H](CO)[C@@H](O)[C@@H](O)[C@H]4O)ccc3c2=O)n1 | 1.27% [at 9.04 µM] (inactive) |
| CCCCCCCC/C=C\CCCCCCCC(=O)OC[C@H](CO)OC(C)=O | -8.7% [at 4.12 µM] (inactive) |
| COC(C)C(C(=O)OCC1=CCN2CC[C@H](O)[C@@H]12)C(C)C (some centres undefined) | -18.8% [at 9.04 µM] (inactive) |
